Reference source: patent US4764617A

test: Acute toxicity (LD50, up-and-down method); conditions: in vivo; iv, tail vein, ddN male mouse; * fumarate, ** oxalate
Strictly below 20 mg/kg in LD50: rule met. Otherwise: rule not met.

{"Compound": "O=C(NC(CCN1CCCCC1)c1ccccc1)c1ccc2ccccc2n1 (stereo not drawn)", "Class": "rule not met"}
{"Compound": "Cc1cccc(C(CCN2CCCCC2)NC(=O)c2ccc3ccccc3n2)c1 (stereo not drawn)", "Class": "rule not met"}
{"Compound": "CCN(CC)CCC(NC(=O)c1ccc2ccccc2n1)c1ccccc1 (stereo not drawn)", "Class": "rule met"}
{"Compound": "O=C(NC(CCN1CCCCCC1)c1ccccc1)c1ccc2ccccc2n1 (stereo not drawn)", "Class": "rule met"}
{"Compound": "Cc1ccccc1C(CCN1CCCCC1)NC(=O)c1ccc2ccccc2n1 (stereo not drawn)", "Class": "rule not met"}
{"Compound": "O=C(NC(CCN1CCCC1)c1ccccc1)c1ccc2ccccc2n1 (stereo not drawn)", "Class": "rule met"}
